Cited source for all entries: paper doi:10.1101/2024.08.19.608619

Let's look at some compounds and their measured perc_inhibition_mean.
assay_target: SARS-CoV-2 nsp3-mac1 (Severe acute respiratory syndrome coronavirus 2, UniProt P0DTD1)
assay_details: biochemical
Type: biochemical
applied_conditions: SARS-CoV-2 nsp3 macrodomain TR-FRET single point; concentration 99.5 uM; n=2
recorded_metric: perc_inhibition_mean (%)

>>> print(df.to_string())
                                   compound                              assay_target  readout_value
0  O=C(CCN(Cc1cccc(Cl)c1)C(=O)[C@H]1C[C@H](O)C1)N1CCNCC1 [ASAP-0000344]  SARS-CoV-2 nsp3-mac1 (Severe acute respiratory syndrome coronavirus 2, UniProt P0DTD1)         -3.766
1  C[C@H](NC(=O)c1ccc(NC(=O)Nc2ccccc2)cc1)c1ccccn1 [ASAP-0000291]  SARS-CoV-2 nsp3-mac1 (Severe acute respiratory syndrome coronavirus 2, UniProt P0DTD1)          0.349
2  O=C(NCCn1cncn1)c1cnn2ccc(C3CCN(C(=O)c4ccccc4)CC3)cc12 [ASAP-0000352]  SARS-CoV-2 nsp3-mac1 (Severe acute respiratory syndrome coronavirus 2, UniProt P0DTD1)         -2.566
3  O=C(c1ccccc1)N1CCC(c2ccn3ncc(C(=O)N4CCc5nc[nH]c5C4)c3c2)CC1 [ASAP-0000280]  SARS-CoV-2 nsp3-mac1 (Severe acute respiratory syndrome coronavirus 2, UniProt P0DTD1)         20.268
